molecular target: UniProt:P32245; experiment: cAMP agonist stimulation, high receptor density system (10 ng/mL doxycycline); settings: 10 ng/mL doxycycline, high receptor density hMC4-R system; NDP-α-MSH maximal cAMP = 1.0
Sequence (P32245 whole entry): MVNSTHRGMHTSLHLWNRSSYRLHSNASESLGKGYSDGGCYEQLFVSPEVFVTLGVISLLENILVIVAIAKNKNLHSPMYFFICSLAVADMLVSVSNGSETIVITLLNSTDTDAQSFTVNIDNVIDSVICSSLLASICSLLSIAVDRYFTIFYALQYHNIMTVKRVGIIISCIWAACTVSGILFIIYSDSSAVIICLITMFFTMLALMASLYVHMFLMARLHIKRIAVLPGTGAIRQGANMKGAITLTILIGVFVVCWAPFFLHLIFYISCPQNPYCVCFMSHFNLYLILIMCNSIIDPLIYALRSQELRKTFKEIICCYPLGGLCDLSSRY
value_type: Efficacy/Intrinsic Activity

molecule	numeric_readout
N=C(N)NCCC[C@H]1C(=O)N2C(CC[C@@H]2COc2ccc3ccccc3c2)N1C(=O)[C@@H](Cc1ccc(Cl)cc1Cl)NC(=O)[C@@H]1Cc2ccccc2CN1 (stereo partly shown) [Example 22]	0.30
Cc1cc(Cl)ccc1C[C@@H](N)C(=O)N1C[C@@H](C)N(CCc2c[nH]c3ccccc23)C[C@@H]1CCCNC(=N)N [Example 9]	0.73
Cc1cc(Cl)ccc1C[C@@H](N)C(=O)N1C[C@@H](C)N(CCc2ccc3ccccc3c2)C[C@@H]1CCCNC(=N)N [Example 26]	0.78
CC(=O)N[C@H](Cc1ccc(C)cc1C)C(=O)N1C[C@@H](C)N(C(=O)Cc2ccc3ccccc3c2)C[C@@H]1CCCNC(=N)N [Example 30]	0.18
Cc1ccc(C[C@@H](N)C(=O)N2C[C@@H](C)N(CCc3ccc4ccccc4c3)C[C@@H]2CCCNC(=N)N)c(C)c1 [Example 27]	0.61
NCCCC[C@H]1C(=O)N(CCc2ccc3ccccc3c2)CCN1C(=O)[C@@H](Cc1ccc(Cl)cc1Cl)NC(=O)[C@@H]1CC[C@H](c2ccccc2)N1 [Example 18]	0.29

###

test: ICV food intake and body weight change; format: in vivo; conditions: rat, 1 nmol, 24 hours
Non-standard residues stand in square brackets, D forms with d. Residues, ends and D or L forms follow the SMILES beside them. *: point of attachment. Acetyl(2-naphthyl) = O=C(Cc1ccc2ccccc2c1)*; dPhe(4-Cl) = N[C@H](Cc1ccc(Cl)cc1)C(=O)O; Ac6c = NC1(C(=O)O)CCCCC1; Heptanoyl = CCCCCCC(=O)*; Ahp = NCCCCCCC(=O)O; Bn = c1ccc(C*)cc1

compound	decrease in body weight / %
CCCCCCC(=O)N[C@H](C(=O)N[C@H](Cc1ccc(Cl)cc1)C(=O)N[C@@H](CCCNC(=N)N)C(=O)N[C@@H](Cc1c[nH]c2ccccc12)C(N)=O)[C@@H](C)OCc1ccccc1 [Example 23] (Heptanoyl-T(Bn)[dPhe(4-Cl)]RW-NH2)	1
NCCCC[C@H]1C(=O)N(CCc2ccc3ccccc3c2)CCN1C(=O)[C@@H](Cc1ccc(Cl)cc1Cl)NC(=O)c1ccc(Oc2ccccc2)cc1 [Example 21]	1
N=C(N)NCCC[C@H](NC(=O)[C@@H](Cc1ccc(Cl)cc1)NC(=O)C1(NC(=O)Cc2ccc3ccccc3c2)CCCCC1)C(=O)N[C@@H](Cc1c[nH]c2ccccc12)C(N)=O [Example 24] ({Acetyl(2-naphthyl)}-[Ac6c][dPhe(4-Cl)]RW-NH2)	1
N=C(N)NCCC[C@H](NC(=O)[C@@H](Cc1ccc(Cl)cc1)NC(=O)[C@H](COCc1ccccc1)NC(=O)CCCCCCN)C(=O)N[C@@H](Cc1c[nH]c2ccccc12)C(=O)N[C@@H](CC(=O)O)C(=O)N[C@@H](Cc1ccccc1)C(N)=O [Example 14] (H-[Ahp]S(Bn)[dPhe(4-Cl)]RWDF-NH2)	−2
NCCCC[C@H]1C(=O)N(CCc2ccc3ccccc3c2)CCN1C(=O)[C@@H](Cc1ccc(Cl)cc1Cl)NC(=O)[C@@H]1CC[C@H](c2ccccc2)N1 [Example 18]	2
Cc1cc(Cl)ccc1C[C@@H](N)C(=O)N1C[C@@H](C)N(CCc2c[nH]c3ccccc23)C[C@@H]1CCCNC(=N)N [Example 9]	2
N=C(N)NCCC[C@H](NC(=O)[C@@H](Cc1ccc(Cl)cc1)NC(=O)[C@H](COCc1ccccc1)NC(=O)CCCCCCN)C(=O)N[C@@H](Cc1c[nH]c2ccccc12)C(=O)N[C@@H](CC(=O)O)C(N)=O [Example 13] (H-[Ahp]S(Bn)[dPhe(4-Cl)]RWD-NH2)	2.1

Source: patent US20090081197A1
